SYSTEM_UNDER_TEST: BRM (Homo sapiens)
Construct: made in house; host or cells: High Five insect cells
Sequence (P51531 whole entry): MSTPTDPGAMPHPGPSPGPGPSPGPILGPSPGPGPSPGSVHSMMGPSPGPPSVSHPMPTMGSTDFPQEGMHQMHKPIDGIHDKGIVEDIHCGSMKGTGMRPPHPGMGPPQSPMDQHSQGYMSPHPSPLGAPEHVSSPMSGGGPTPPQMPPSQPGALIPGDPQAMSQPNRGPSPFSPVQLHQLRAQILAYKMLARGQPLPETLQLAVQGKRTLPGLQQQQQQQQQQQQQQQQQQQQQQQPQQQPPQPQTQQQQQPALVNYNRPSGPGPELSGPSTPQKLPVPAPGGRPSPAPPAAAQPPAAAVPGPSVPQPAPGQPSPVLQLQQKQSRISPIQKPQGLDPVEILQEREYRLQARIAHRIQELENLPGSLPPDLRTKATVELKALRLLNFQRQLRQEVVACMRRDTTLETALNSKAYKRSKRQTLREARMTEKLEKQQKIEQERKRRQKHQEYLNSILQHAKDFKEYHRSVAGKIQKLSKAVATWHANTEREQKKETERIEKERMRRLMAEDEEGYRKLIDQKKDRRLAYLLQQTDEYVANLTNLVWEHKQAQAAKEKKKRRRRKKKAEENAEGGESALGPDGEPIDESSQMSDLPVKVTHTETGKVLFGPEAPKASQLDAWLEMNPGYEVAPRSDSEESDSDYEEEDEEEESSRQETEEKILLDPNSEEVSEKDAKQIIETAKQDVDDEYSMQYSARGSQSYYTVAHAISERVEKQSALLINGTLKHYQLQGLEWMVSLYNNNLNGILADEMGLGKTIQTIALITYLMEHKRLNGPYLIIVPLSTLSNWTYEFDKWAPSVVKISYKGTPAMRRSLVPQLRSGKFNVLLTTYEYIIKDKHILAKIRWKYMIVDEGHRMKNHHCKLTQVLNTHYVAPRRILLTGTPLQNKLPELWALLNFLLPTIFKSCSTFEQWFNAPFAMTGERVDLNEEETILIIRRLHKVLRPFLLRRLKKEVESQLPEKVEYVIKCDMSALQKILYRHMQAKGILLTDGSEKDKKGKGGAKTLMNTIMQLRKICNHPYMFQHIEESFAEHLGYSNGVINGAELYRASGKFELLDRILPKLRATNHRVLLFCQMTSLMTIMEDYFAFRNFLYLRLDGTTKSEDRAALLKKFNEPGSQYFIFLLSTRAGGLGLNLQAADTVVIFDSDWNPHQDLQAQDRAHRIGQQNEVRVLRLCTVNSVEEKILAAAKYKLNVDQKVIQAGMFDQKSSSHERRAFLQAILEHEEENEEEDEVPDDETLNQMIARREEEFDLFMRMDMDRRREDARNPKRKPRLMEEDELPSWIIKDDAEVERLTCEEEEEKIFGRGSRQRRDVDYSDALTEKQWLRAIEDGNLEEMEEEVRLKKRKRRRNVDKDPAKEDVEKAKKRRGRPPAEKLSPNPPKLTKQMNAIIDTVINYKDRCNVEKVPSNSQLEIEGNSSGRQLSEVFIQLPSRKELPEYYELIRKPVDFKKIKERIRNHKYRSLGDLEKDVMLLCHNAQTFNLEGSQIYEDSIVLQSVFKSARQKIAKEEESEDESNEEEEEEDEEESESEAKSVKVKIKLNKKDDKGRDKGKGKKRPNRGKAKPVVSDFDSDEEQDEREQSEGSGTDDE
MEASUREMENT_DESCRIPTION: ATPase catalytic activity of BRM, ADP-Glo in vitro biochemical assay
ASSAY_CONTEXT: ATPase catalytic activity, 30 nM BRM, 400 μM ATP, read-out: BRM IP50 (μM)*
PROPERTY_MEASURED: IC50

1. COC[C@H](NC(=O)c1ccn(C(C)(C)C)c1)C(=O)Nc1nc(-c2ccc3ccn(C)c(=O)c3c2)cs1: > 0.01 µM
2. CS(=O)(=O)n1ccc(C(=O)NCC(=O)Nc2nc(-c3cc(F)c4c(c3)OCC4)cs2)c1: < 0.01 µM
3. CC1(C)CN(c2cccc(-c3csc(NC(=O)CNC(=O)c4ccn(S(C)(=O)=O)c4)n3)c2)CC[C@H]1O: < 0.01 µM
4. Cc1cn(-c2cccc(-c3csc(NC(=O)CNC(=O)c4ccn(S(C)(=O)=O)c4)n3)c2)cn1: > 0.01 µM
5. CS(=O)(=O)n1ccc(C(=O)NCC(=O)Nc2nc(-c3cccc(N4CC(O)(C(F)(F)F)C4)c3)cs2)c1: > 0.1 µM
6. CN(C)S(=O)(=O)n1ccc(C(=O)NCC(=O)Nc2nc(-c3cccc(-c4ccncc4)c3)cs2)c1: > 0.01 µM
7. COC[C@H]1CCN(c2cccc(-c3csc(NC(=O)CNC(=O)c4ccn(S(C)(=O)=O)c4)n3)c2)C1: > 0.01 µM
8. CS(=O)(=O)n1ccc(C(=O)NCC(=O)Nc2nc(-c3cc(Cl)cc(OC4CC4)c3)cs2)c1: > 0.01 µM
9. C[C@@H]1CN(c2cccc(-c3csc(NC(=O)[C@H](CO)NC(=O)c4ccn(C5(C)COC5)c4)n3)n2)C[C@H](C)O1: > 0.01 µM
10. CN1Cc2ccc(-c3csc(NC(=O)CNC(=O)c4ccn(S(C)(=O)=O)c4)n3)cc2CC1=O: > 0.01 µM
11. C[C@@H]1CN(c2nccc(-c3csc(NC(=O)CNC(=O)c4ccn(C(C)(C)C)c4)n3)n2)C[C@H](C)O1: < 0.01 µM
12. COC[C@H]1CCCN(c2cccc(-c3csc(NC(=O)CNC(=O)c4ccn(C(C)(C)C)c4)n3)n2)C1: > 0.01 µM
13. COC[C@H](NC(=O)c1ccn(S(C)(=O)=O)c1)C(=O)Nc1nc(-c2ccc3c(c2)C(=O)N(C)CC3)cs1: > 0.01 µM
14. COCCN1CCc2ccc(-c3csc(NC(=O)CNC(=O)c4ccn(S(C)(=O)=O)c4)n3)cc21: > 0.01 µM
15. CN(C)C1CN(c2cccc(-c3csc(NC(=O)CNC(=O)c4ccn(S(C)(=O)=O)c4)n3)c2)C1: > 0.01 µM
16. Cc1nc(-c2cccc(-c3csc(NC(=O)CNC(=O)c4ccn(S(C)(=O)=O)c4)n3)c2)c[nH]1: > 0.01 µM
17. C[C@@H]1CN(c2cccc(-c3csc(NC(=O)CNC(=O)c4ccn(C5(C)COC5)c4)n3)c2F)C[C@H](C)O1: > 0.01 µM
18. CN1CCOc2ccc(-c3csc(NC(=O)CNC(=O)c4ccn(C(C)(C)C)c4)n3)cc21: > 0.01 µM
19. CS(=O)(=O)n1ccc(C(=O)NCC(=O)Nc2nc(-c3cccc(COc4ccccc4)c3)cs2)c1: > 0.01 µM
20. CN(C)CC[C@@H](NC(=O)c1ccn(S(C)(=O)=O)c1)C(=O)Nc1nc(-c2cccc(-c3ccncc3)c2)cs1: > 0.1 µM
21. CS(=O)(=O)n1ccc(C(=O)NCC(=O)Nc2nc(-c3cccc(N4CCC[C@H](F)C4)c3)cs2)c1: > 0.01 µM
22. CN(CC(=O)O)c1cc(-c2cccc(-c3csc(NC(=O)CNC(=O)c4ccn(S(C)(=O)=O)c4)n3)c2)ccn1: < 0.01 µM
23. COC[C@H](NC(=O)c1ccn(C(C)(C)C)n1)C(=O)Nc1nc(-c2ccc3ccn(C)c(=O)c3c2)cs1: > 0.1 µM
24. C[C@@H]1CN(c2cccc(-c3csc(NC(=O)CNC(=O)c4ccn(C(C)(C)C)c4)n3)c2)C[C@H](C)O1: < 0.01 µM
25. CS(=O)(=O)n1ccc(C(=O)NCC(=O)Nc2nc(C3CCCN(c4ccncc4)C3)cs2)c1 (centres unmarked): > 0.1 µM
26. CNc1cccc(-c2csc(NC(=O)CNC(=O)c3ccn(S(C)(=O)=O)c3)n2)c1: > 0.01 µM
27. CCS(=O)(=O)n1ccc(C(=O)NCC(=O)Nc2nc(-c3cccc(N4CCC(O)CC4)c3)cs2)c1: > 0.01 µM
28. CN1CCCc2ccc(-c3csc(NC(=O)CNC(=O)c4ccn(C(C)(C)C)c4)n3)nc21: > 0.01 µM
29. Cn1ccc(OCc2cccc(-c3csc(NC(=O)CNC(=O)c4ccn(C(C)(C)C)c4)n3)c2)n1: > 0.01 µM

Where these numbers come from: patent US20230079819A1
